Can you tell me MIC50 for the items I'm about to list?
# Test system: Vibrio sp.
# Assay: Antibacterial activity against Vibrio sp. by broth microdilution method
# Assay type: functional
Answers are plain numbers, in µg/mL.

In the examples that follow, each entry is paired with its recorded MIC50.
{"Compound": "CC1Sc2c(C(=O)O)c(=O)c3cc(F)c(N4CCNCC4)cc3n21 (stereo unspecified)", "MIC50, µg/mL": 0.016}
{"Compound": "CC1(C)S[C@@H]2[C@H](NC(=O)[C@H](N)c3ccccc3)C(=O)N2[C@H]1C(=O)O", "MIC50, µg/mL": 2}
{"Compound": "O=C(O)c1cn(C2CC2)c2cc(N3CCNCC3)c(F)cc2c1=O", "MIC50, µg/mL": 0.016}

In the following, a different compound is considered.
Would you mind telling me what MIC50 value was observed for `CO[C@H]1/C=C/O[C@@]2(C)Oc3c(C)c(O)c4c(O)c(c5c(nc6cc(C)ccn65)c4c3C2=O)NC(=O)/C(C)=C\C=C\[C@H](C)[C@H](O)[C@@H](C)[C@@H](O)[C@@H](C)[C@H](OC(C)=O)[C@@H]1C` ?
0.5

----------
# Test system: Campylobacter jejuni
# Assay: Antibacterial activity against Campylobacter jejuni by broth microdilution method
# Format: functional
Parameter Measured: MIC50 (µg/mL)
Answers are plain numbers, in µg/mL.

Consider the worked cases shown below.
{"Molecule": "CC[C@H]1OC(=O)[C@H](C)[C@@H](O[C@H]2C[C@@](C)(OC)[C@@H](O)[C@H](C)O2)[C@H](C)[C@@H](O[C@@H]2O[C@H](C)C[C@H](N(C)C)[C@H]2O)[C@](C)(O)C[C@@H](C)C(=O)[C@H](C)[C@@H](O)[C@]1(C)O", "Parameter Measured": "MIC50", "Unit Name": "µg/mL", "Observed Measurement": 0.25}
{"Molecule": "O=C(O)c1cn(C2CC2)c2cc(N3CCNCC3)c(F)cc2c1=O", "Parameter Measured": "MIC50", "Unit Name": "µg/mL", "Observed Measurement": 0.06}

Please state MIC50 for every molecule in the list that follows.
1. CC1Sc2c(C(=O)O)c(=O)c3cc(F)c(N4CCNCC4)cc3n21 (configuration not stated)
2. CC1(C)S[C@@H]2[C@H](NC(=O)[C@H](N)c3ccccc3)C(=O)N2[C@H]1C(=O)O
3. CO[C@H]1/C=C/O[C@@]2(C)Oc3c(C)c(O)c4c(O)c(c5c(nc6cc(C)ccn65)c4c3C2=O)NC(=O)/C(C)=C\C=C\[C@H](C)[C@H](O)[C@@H](C)[C@@H](O)[C@@H](C)[C@H](OC(C)=O)[C@@H]1C

1: 0.03; 2: 2; 3: 32

----------
# Tested on: Aeromonas caviae
# Assay: Antibacterial activity against Aeromonas caviae by broth microdilution method
# Format: functional
Answer each item with its documented MIC50.
Answers are plain numbers, in µg/mL.

// solved cases for MIC50 follow
{"Molecule": "CO[C@H]1/C=C/O[C@@]2(C)Oc3c(C)c(O)c4c(O)c(c5c(nc6cc(C)ccn65)c4c3C2=O)NC(=O)/C(C)=C\\C=C\\[C@H](C)[C@H](O)[C@@H](C)[C@@H](O)[C@@H](C)[C@H](OC(C)=O)[C@@H]1C", "MIC50 [µg/mL]": 4}
{"Molecule": "C[C@H]1c2cccc(O)c2C(=O)C2=C(O)[C@]3(O)C(=O)C(C(N)=O)=C(O)[C@@H](N(C)C)[C@@H]3[C@@H](O)[C@@H]21.O", "MIC50 [µg/mL]": 0.5}
{"Molecule": "CC1Sc2c(C(=O)O)c(=O)c3cc(F)c(N4CCNCC4)cc3n21 (stereo unspecified)", "MIC50 [µg/mL]": 0.004}

Query molecule follows.
For the record `O=C(O)c1cn(C2CC2)c2cc(N3CCNCC3)c(F)cc2c1=O` , what value of MIC50 is listed for Aeromonas caviae?
0.004

----------
# Tested on: Salmonella enteritidis
# Assay: Antibacterial activity against Salmonella enterica serovar Enteritidis by broth microdilution method
# Type: functional, Salmonella enterica subsp. enterica serovar Enteritidis
Give MIC90 for every item shown.
Numbers only, in µg/mL.

// solved cases for MIC90 follow
{"Compound": "CC1Sc2c(C(=O)O)c(=O)c3cc(F)c(N4CCNCC4)cc3n21 (stereo unspecified)", "Parameter Measured": "MIC90", "Observed Measurement": 0.03}
{"Compound": "C[C@H]1c2cccc(O)c2C(=O)C2=C(O)[C@]3(O)C(=O)C(C(N)=O)=C(O)[C@@H](N(C)C)[C@@H]3[C@@H](O)[C@@H]21.O", "Parameter Measured": "MIC90", "Observed Measurement": 32}
{"Compound": "CO[C@H]1/C=C/O[C@@]2(C)Oc3c(C)c(O)c4c(O)c(c5c(nc6cc(C)ccn65)c4c3C2=O)NC(=O)/C(C)=C\\C=C\\[C@H](C)[C@H](O)[C@@H](C)[C@@H](O)[C@@H](C)[C@H](OC(C)=O)[C@@H]1C", "Parameter Measured": "MIC90", "Observed Measurement": 16}

With those in mind, consider the next compound.
MIC90 for `O=C(O)c1cn(C2CC2)c2cc(N3CCNCC3)c(F)cc2c1=O` ?
0.12

----------
Provide the recorded Activity for the entries that follow.
# Test system: Campylobacter jejuni
# Assay: Antibacterial activity against Campylobacter jejuni assessed as percent susceptible isolates by broth microdilution method
# Assay type: functional
# Experimental Setup: pooled result: one value given for 2 cell lines, strains, targets or settings
Give bare numbers, in %.

These solved cases illustrate the format of a correct answer.
{"Compound": "CC[C@H]1OC(=O)[C@H](C)[C@@H](O[C@H]2C[C@@](C)(OC)[C@@H](O)[C@H](C)O2)[C@H](C)[C@@H](O[C@@H]2O[C@H](C)C[C@H](N(C)C)[C@H]2O)[C@](C)(O)C[C@@H](C)C(=O)[C@H](C)[C@@H](O)[C@]1(C)O [ERYTHROMYCIN]", "Activity / %": 100}
{"Compound": "CC1Sc2c(C(=O)O)c(=O)c3cc(F)c(N4CCNCC4)cc3n21 (centres undefined) [ULIFLOXACIN]", "Activity / %": 84.4}
{"Compound": "C[C@H]1c2cccc(O)c2C(=O)C2=C(O)[C@]3(O)C(=O)C(C(N)=O)=C(O)[C@@H](N(C)C)[C@@H]3[C@@H](O)[C@@H]21.O [DOXYCYCLINE]", "Activity / %": 59.6}

# next compound below
What Activity value was documented for this compound, O=C(O)c1cn(C2CC2)c2cc(N3CCNCC3)c(F)cc2c1=O [CIPROFLOXACIN] ?
82.6

----------
# Test system: Aeromonas veronii
# Assay: Antibacterial activity against Aeromonas veronii by broth microdilution method
# Assay type: functional
Parameter Measured: MIC90

Parameters: items (list). Returns: MIC90 for each item.
1. O=C(O)c1cn(C2CC2)c2cc(N3CCNCC3)c(F)cc2c1=O
2. CC1(C)S[C@@H]2[C@H](NC(=O)[C@H](N)c3ccccc3)C(=O)N2[C@H]1C(=O)O
3. CCn1cc(C(=O)O)c(=O)c2ccc(C)nc21

["0.06 µg/mL", "> 256 µg/mL", "> 32 µg/mL"]

----------
# Test system: Vibrio fluvialis
# Assay: Antibacterial activity against Vibrio fluvialis by broth microdilution method
# Assay type: functional
Would you kindly list MIC90 for each of these compounds?
Give bare numbers, in µg/mL.

Check out these entries, answers already filled in.
{"Compound": "CC1Sc2c(C(=O)O)c(=O)c3cc(F)c(N4CCNCC4)cc3n21 (stereo unspecified)", "MIC90 [µg/mL]": 0.03}
{"Compound": "CC1(C)S[C@@H]2[C@H](NC(=O)[C@H](N)c3ccccc3)C(=O)N2[C@H]1C(=O)O", "MIC90 [µg/mL]": 8}
{"Compound": "O=C(O)c1cn(C2CC2)c2cc(N3CCNCC3)c(F)cc2c1=O", "MIC90 [µg/mL]": 0.06}

I am curious: what MIC90 value has been reported for `CO[C@H]1/C=C/O[C@@]2(C)Oc3c(C)c(O)c4c(O)c(c5c(nc6cc(C)ccn65)c4c3C2=O)NC(=O)/C(C)=C\C=C\[C@H](C)[C@H](O)[C@@H](C)[C@@H](O)[C@@H](C)[C@H](OC(C)=O)[C@@H]1C` ?
1

----------
# Tested on: Plesiomonas shigelloides
# Assay: Antibacterial activity against Plesiomonas shigelloides assessed as percent susceptible isolates by broth microdilution method
# Format: functional
For each of the compounds below, state its Activity.
Answers are plain numbers, in %.

{"Compound": "CC1Sc2c(C(=O)O)c(=O)c3cc(F)c(N4CCNCC4)cc3n21 (stereo not given)", "Parameter Measured": "Activity", "Observed Measurement": 100}

Give Activity for each listed item.
1. CC1(C)S[C@@H]2[C@H](NC(=O)[C@H](N)c3ccccc3)C(=O)N2[C@H]1C(=O)O
2. CCn1cc(C(=O)O)c(=O)c2ccc(C)nc21
3. O=C(O)c1cn(C2CC2)c2cc(N3CCNCC3)c(F)cc2c1=O
4. C[C@H]1c2cccc(O)c2C(=O)C2=C(O)[C@]3(O)C(=O)C(C(N)=O)=C(O)[C@@H](N(C)C)[C@@H]3[C@@H](O)[C@@H]21.O

1: 0; 2: 100; 3: 100; 4: 100
